# target of assay: Kinesin-like protein KIF11 (Homo sapiens)
# protocol: Inhibition of KSP (unknown origin)-mediated ATP hydrolysis assessed as residual activity at 1 uM after 10 to 20 mins by spectrophotometric analysis
Provide the recorded Activity for the entries that follow.

Give the observed Activity of CC(C)[C@@H](c1nc2cc(Cl)ccc2c(=O)n1Cc1ccccc1)N(CCCN)C(=O)c1cccc(F)c1 for Kinesin-like protein KIF11 (Homo sapiens).
95.5%

Give the observed Activity of Cc1ccc(C(=O)N(CCCN)[C@@H](c2nc3cc(Cl)ccc3c(=O)n2Cc2ccccc2)C(C)C)cc1 [ISPINESIB] for Kinesin-like protein KIF11 (Homo sapiens).
8.8%

Give the observed Activity of Cc1ccc(C(=O)N(CCCN)[C@H](c2nc3cc(Cl)ccc3c(=O)n2Cc2ccccc2)C(C)C)cc1 for Kinesin-like protein KIF11 (Homo sapiens).
99.4%

Give the observed Activity of CC(C)C(c1nc2cc(Cl)ccc2c(=O)n1Cc1ccccc1)N(CCCN)C(=O)c1cccc(F)c1 (racemic) for Kinesin-like protein KIF11 (Homo sapiens).
10.1%

Give the observed Activity of CC(C)[C@H](c1nc2cc(Cl)ccc2c(=O)n1Cc1ccccc1)N(CCCN)C(=O)c1ccc(F)cc1 for Kinesin-like protein KIF11 (Homo sapiens).
2.7%

Give the observed Activity of CC(C)[C@H](c1nc2cc(Cl)ccc2c(=O)n1Cc1ccccc1)N(CCCN)C(=O)c1ccccc1F for Kinesin-like protein KIF11 (Homo sapiens).
7.5%

Give the observed Activity of CC(C)[C@@H](c1nc2cc(Cl)ccc2c(=O)n1Cc1ccccc1)N(CCCN)C(=O)c1ccc(F)cc1 for Kinesin-like protein KIF11 (Homo sapiens).
96.1%

Give the observed Activity of CC(C)[C@@H](c1nc2cc(Cl)ccc2c(=O)n1Cc1ccccc1)N(CCCN)C(=O)c1ccccc1F for Kinesin-like protein KIF11 (Homo sapiens).
95.9%

###

# target of assay: UniProt Q02224
# Sequence (Q02224 whole entry): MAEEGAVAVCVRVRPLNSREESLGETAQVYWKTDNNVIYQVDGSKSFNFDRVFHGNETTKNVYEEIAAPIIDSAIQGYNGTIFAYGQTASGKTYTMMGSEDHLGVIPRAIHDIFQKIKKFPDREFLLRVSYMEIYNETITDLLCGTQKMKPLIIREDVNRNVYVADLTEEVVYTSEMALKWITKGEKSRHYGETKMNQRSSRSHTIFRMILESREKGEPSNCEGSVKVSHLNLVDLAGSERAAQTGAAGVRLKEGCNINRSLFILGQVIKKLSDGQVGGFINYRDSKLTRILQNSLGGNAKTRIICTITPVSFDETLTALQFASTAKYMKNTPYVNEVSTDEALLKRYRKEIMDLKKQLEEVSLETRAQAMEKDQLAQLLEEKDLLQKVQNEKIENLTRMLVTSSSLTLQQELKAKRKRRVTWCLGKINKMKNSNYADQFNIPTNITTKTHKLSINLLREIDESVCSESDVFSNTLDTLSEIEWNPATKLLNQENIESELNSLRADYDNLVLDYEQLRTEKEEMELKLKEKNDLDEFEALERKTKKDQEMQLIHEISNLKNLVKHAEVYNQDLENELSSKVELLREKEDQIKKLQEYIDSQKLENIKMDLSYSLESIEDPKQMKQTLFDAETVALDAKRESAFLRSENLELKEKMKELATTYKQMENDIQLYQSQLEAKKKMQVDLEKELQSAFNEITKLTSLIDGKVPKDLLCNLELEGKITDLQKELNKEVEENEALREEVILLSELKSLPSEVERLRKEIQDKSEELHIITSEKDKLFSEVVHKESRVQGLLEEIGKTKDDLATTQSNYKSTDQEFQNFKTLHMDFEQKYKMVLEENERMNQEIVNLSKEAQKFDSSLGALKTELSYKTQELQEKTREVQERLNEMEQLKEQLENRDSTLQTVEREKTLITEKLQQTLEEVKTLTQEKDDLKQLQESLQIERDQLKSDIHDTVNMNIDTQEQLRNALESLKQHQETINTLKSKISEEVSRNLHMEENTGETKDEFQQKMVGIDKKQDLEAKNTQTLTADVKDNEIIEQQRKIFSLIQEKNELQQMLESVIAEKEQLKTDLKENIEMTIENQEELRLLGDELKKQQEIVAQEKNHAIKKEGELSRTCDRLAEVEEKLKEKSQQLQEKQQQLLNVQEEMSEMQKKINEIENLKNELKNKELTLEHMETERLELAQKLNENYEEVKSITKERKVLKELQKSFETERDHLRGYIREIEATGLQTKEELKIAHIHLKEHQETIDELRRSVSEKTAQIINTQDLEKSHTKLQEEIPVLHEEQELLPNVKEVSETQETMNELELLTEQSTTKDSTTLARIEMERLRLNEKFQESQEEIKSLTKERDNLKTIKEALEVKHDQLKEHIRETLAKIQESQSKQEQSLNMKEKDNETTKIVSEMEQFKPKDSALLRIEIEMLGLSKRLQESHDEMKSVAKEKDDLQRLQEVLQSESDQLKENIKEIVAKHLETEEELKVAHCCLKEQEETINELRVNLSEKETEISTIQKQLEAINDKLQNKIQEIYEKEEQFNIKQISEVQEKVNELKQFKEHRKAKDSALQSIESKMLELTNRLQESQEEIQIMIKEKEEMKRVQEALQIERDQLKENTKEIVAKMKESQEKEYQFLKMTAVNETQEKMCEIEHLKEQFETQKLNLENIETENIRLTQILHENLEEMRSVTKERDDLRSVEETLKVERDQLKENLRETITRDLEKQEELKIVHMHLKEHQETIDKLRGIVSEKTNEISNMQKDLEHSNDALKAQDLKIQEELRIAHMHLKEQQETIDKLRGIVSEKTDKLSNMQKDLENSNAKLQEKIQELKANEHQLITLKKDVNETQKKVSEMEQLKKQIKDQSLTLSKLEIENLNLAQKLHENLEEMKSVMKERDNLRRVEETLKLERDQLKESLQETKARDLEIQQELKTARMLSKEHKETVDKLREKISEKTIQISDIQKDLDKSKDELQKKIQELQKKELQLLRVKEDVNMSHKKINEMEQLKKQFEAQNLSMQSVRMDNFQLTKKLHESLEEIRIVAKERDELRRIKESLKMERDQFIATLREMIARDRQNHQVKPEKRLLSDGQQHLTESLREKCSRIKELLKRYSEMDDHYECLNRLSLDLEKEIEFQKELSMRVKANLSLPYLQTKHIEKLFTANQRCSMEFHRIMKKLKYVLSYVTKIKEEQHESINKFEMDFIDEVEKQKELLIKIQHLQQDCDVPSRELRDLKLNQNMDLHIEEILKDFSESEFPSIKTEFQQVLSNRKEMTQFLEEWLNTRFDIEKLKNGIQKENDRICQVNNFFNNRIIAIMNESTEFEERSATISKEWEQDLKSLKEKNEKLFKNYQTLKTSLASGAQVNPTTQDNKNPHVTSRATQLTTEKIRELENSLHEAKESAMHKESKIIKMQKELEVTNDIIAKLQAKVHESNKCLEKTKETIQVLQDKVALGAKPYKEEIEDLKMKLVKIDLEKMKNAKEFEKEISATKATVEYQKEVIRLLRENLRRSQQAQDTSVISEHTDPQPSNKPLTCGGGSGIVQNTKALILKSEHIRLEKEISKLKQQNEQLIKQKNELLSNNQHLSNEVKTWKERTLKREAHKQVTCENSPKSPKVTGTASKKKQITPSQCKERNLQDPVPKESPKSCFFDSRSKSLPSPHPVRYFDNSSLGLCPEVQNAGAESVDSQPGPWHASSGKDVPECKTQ
# protocol: Inhibition of CENP-E (unknown origin)-mediated ATP hydrolysis assessed as residual activity at 1 uM after 10 to 20 mins by spectrophotometric analysis
Provide the recorded Activity for the entries that follow.
Please state the figure in %; there is no need to write the unit.

Please supply the value of reported Activity for the item CC(C)C(c1nc2cc(Cl)ccc2c(=O)n1Cc1ccccc1)N(CCCN)C(=O)c1cccc(F)c1 (racemic)
97.4

Please supply the value of reported Activity for the item CC(C)[C@@H](c1nc2cc(Cl)ccc2c(=O)n1Cc1ccccc1)N(CCCN)C(=O)c1ccc(F)cc1
97.4

Please supply the value of reported Activity for the item Cc1ccc(C(=O)N(CCCN)[C@H](c2nc3cc(Cl)ccc3c(=O)n2Cc2ccccc2)C(C)C)cc1
99.1

Please supply the value of reported Activity for the item Cc1ccc(C(=O)N(CCCN)[C@@H](c2nc3cc(Cl)ccc3c(=O)n2Cc2ccccc2)C(C)C)cc1
98

###

# Test system: PC-3
# protocol: Cell cycle arrest in human PC3 cells assessed as accumulation in G0/G1 phase at 100 nM after 24 hrs by FACS analysis (reference value: 32.6%)
# Format: functional
value type: Activity (%)
Please state the figure in %; there is no need to write the unit.

Please supply the value of reported Activity for the item Cc1ccc(C(=O)N(CCCN)[C@@H](c2nc3cc(Cl)ccc3c(=O)n2Cc2ccccc2)C(C)C)cc1 [ISPINESIB]
13.8

Please supply the value of reported Activity for the item CC(C)[C@@H](c1nc2cc(Cl)ccc2c(=O)n1Cc1ccccc1)N(CCCN)C(=O)c1ccc(F)cc1
31

Please supply the value of reported Activity for the item CC(C)[C@H](c1nc2cc(Cl)ccc2c(=O)n1Cc1ccccc1)N(CCCN)C(=O)c1ccc(F)cc1
12

Please supply the value of reported Activity for the item Cc1ccc(C(=O)N(CCCN)[C@H](c2nc3cc(Cl)ccc3c(=O)n2Cc2ccccc2)C(C)C)cc1
34.4

###

# target of assay: Centromere-associated protein E (Homo sapiens)
# protocol: Inhibition of CENP-E (unknown origin)-mediated ATP hydrolysis assessed as residual activity at 1 uM after 10 to 20 mins by spectrophotometric analysis
Provide the recorded Activity for the entries that follow.
Please state the figure in %; there is no need to write the unit.

Please supply the value of reported Activity for the item CC(C)[C@@H](c1nc2cc(Cl)ccc2c(=O)n1Cc1ccccc1)N(CCCN)C(=O)c1cccc(F)c1
100

Please supply the value of reported Activity for the item CC(C)[C@@H](c1nc2cc(Cl)ccc2c(=O)n1Cc1ccccc1)N(CCCN)C(=O)c1ccccc1F
97.9

Please supply the value of reported Activity for the item CC(C)[C@H](c1nc2cc(Cl)ccc2c(=O)n1Cc1ccccc1)N(CCCN)C(=O)c1ccccc1F
99.1

Please supply the value of reported Activity for the item CC(C)[C@H](c1nc2cc(Cl)ccc2c(=O)n1Cc1ccccc1)N(CCCN)C(=O)c1ccc(F)cc1
99.8

###

# target of assay: Kinesin-1 heavy chain (Homo sapiens)
# Sequence (whole entry): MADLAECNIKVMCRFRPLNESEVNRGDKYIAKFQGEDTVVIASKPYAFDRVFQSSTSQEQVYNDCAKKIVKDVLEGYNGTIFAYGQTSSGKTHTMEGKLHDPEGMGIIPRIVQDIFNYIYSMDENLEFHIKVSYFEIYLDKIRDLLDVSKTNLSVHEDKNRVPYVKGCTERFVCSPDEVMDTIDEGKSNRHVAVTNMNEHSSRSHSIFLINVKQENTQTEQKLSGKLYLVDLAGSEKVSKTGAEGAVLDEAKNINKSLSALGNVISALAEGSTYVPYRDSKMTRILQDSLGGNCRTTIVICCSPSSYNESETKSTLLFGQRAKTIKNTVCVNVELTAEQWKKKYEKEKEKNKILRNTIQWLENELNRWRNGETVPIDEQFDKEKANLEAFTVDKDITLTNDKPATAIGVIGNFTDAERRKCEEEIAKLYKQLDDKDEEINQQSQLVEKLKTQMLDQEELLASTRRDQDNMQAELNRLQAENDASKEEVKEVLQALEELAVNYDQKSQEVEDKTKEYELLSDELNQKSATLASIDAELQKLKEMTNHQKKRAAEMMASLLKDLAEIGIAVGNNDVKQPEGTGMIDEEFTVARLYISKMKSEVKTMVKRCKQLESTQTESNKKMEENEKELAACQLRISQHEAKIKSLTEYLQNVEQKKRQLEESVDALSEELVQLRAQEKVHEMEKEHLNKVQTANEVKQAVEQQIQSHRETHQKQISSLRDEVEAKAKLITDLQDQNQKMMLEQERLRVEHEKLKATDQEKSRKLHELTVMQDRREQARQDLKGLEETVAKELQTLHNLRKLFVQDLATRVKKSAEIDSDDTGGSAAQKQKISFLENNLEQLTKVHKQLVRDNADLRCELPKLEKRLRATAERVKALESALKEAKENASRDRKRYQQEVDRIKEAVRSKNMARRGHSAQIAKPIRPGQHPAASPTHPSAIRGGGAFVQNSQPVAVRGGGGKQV
# protocol: Inhibition of KNH (unknown origin)-mediated ATP hydrolysis assessed as residual activity at 1 uM after 10 to 20 mins by spectrophotometric analysis
value type: Activity (%)
Please state the figure in %; there is no need to write the unit.

Give the observed Activity of CC(C)[C@H](c1nc2cc(Cl)ccc2c(=O)n1Cc1ccccc1)N(CCCN)C(=O)c1ccccc1F for Kinesin-1 heavy chain (Homo sapiens).
97.2

Give the observed Activity of Cc1ccc(C(=O)N(CCCN)[C@H](c2nc3cc(Cl)ccc3c(=O)n2Cc2ccccc2)C(C)C)cc1 for Kinesin-1 heavy chain (Homo sapiens).
96.8

Give the observed Activity of CC(C)C(c1nc2cc(Cl)ccc2c(=O)n1Cc1ccccc1)N(CCCN)C(=O)c1cccc(F)c1 (racemic) for Kinesin-1 heavy chain (Homo sapiens).
99.1

Give the observed Activity of CC(C)[C@@H](c1nc2cc(Cl)ccc2c(=O)n1Cc1ccccc1)N(CCCN)C(=O)c1ccc(F)cc1 for Kinesin-1 heavy chain (Homo sapiens).
99.2

###

# target of assay: Kinesin-1 heavy chain (Homo sapiens)
# Sequence (whole entry): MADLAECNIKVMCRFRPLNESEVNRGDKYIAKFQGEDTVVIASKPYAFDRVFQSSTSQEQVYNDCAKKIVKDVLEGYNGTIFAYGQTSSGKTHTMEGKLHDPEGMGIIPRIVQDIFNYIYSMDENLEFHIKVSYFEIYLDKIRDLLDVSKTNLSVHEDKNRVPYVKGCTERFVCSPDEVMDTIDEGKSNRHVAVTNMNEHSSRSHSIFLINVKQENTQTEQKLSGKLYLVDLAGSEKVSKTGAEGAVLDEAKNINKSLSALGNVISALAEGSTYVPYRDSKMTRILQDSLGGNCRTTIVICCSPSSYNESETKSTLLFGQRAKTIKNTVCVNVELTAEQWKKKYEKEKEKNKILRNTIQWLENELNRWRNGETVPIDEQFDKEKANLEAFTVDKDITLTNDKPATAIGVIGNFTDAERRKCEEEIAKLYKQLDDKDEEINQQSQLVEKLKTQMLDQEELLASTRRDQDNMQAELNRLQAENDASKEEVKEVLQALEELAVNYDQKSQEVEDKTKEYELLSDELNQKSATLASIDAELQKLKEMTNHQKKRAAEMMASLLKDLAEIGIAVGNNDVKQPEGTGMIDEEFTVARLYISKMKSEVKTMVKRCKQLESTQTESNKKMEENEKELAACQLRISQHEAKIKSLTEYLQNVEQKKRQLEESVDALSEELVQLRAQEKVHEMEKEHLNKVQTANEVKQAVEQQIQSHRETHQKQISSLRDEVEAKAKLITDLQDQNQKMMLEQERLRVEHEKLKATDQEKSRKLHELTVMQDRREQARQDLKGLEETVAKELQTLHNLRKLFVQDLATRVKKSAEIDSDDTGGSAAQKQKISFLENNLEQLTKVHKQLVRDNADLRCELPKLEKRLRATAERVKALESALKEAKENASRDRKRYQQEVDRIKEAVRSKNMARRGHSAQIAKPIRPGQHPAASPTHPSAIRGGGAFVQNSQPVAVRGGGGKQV
# protocol: Inhibition of KNH (unknown origin)-mediated ATP hydrolysis assessed as residual activity at 1 uM after 10 to 20 mins by spectrophotometric analysis
value type: Activity (%)
Please state the figure in %; there is no need to write the unit.

Please supply the value of reported Activity for the item CC(C)[C@@H](c1nc2cc(Cl)ccc2c(=O)n1Cc1ccccc1)N(CCCN)C(=O)c1cccc(F)c1
98.9

Please supply the value of reported Activity for the item CC(C)[C@@H](c1nc2cc(Cl)ccc2c(=O)n1Cc1ccccc1)N(CCCN)C(=O)c1ccccc1F
97.9

Please supply the value of reported Activity for the item Cc1ccc(C(=O)N(CCCN)[C@@H](c2nc3cc(Cl)ccc3c(=O)n2Cc2ccccc2)C(C)C)cc1
102

Please supply the value of reported Activity for the item CC(C)[C@H](c1nc2cc(Cl)ccc2c(=O)n1Cc1ccccc1)N(CCCN)C(=O)c1ccc(F)cc1
97.1
